Reported values of Papp at 4 h for individual entries
- assay_explanation: Apparent permeability of compound in PBS buffer at pH 7.4 incubated for 4 hrs by LC-UV-MS analysis
- Type: ADME
- conditions_used: not told
Kindly answer with a numeric value in ×10⁻⁶ cm/s, unit omitted.

Cn1ncc2c(Nc3ncc(C(=O)Nc4cccc(O)c4)s3)nc(SCCN3CCOCC3)nc21 : 0.1
O=C(Nc1ccccc1)c1cnc(Nc2ncnc3c2cnn3CC(Cl)c2ccccc2)s1 (configuration not stated) : 12
O=C(Nc1cccc(O)c1)c1cnc(Nc2ncnc3c2cnn3CC(Cl)c2ccccc2)s1 (configuration not stated) : 0.14

Exercise: Requested field: Papp at 4 h. Item: Cn1ncc2c(Nc3ncc(C(=O)Nc4ccccc4)s3)nc(SCCN3CCOCC3)nc21
Solution: 1.61
